quantity.measured: logP

Solved entries:
Cc1nc(C)c(C)nc1C
1.28
CCOC(=O)c1nccnc1C(=O)OCC
0.65
COC(=O)c1cnc(C)cn1
0.17

I = COC(=O)c1cncc(OC)n1
II = COc1cncc(N(C)C)n1
III = Nc1cncc(N)n1
Enquiry: Could you please order the items by logP, going from the lowest number to the highest? // list labels; follow requested order
Return: III, I, II

a = CCOC(=O)c1cncc(C)n1
b = Cc1nccnc1OC(C)C
c = Cc1cnc(C#N)cn1
d = COc1cncc(NC(C)=O)n1
e = Cc1cncc(C(N)=O)n1
Enquiry: // ascending sort on recorded logP Dear reader, please state the labels in the requested order.
Return: e, c, a, d, b
(e: -0.13, c: 0.26, a: 0.51, d: 0.82, b: 2.24)

I = Clc1cnc(Cl)cn1
II = COc1ccnc(C#N)n1
III = Cc1nccnc1C
Enquiry: Descending sort on logP required. Write the labels in rank order as requested.
Return: I, II, III

A = CCc1ncc(C)nc1CC
B = N#Cc1nccnc1C#N
C = CCCCc1nc(C#N)c(C#N)nc1Cl
Enquiry: Arrange the 3 compounds by rising logP, starting with the smallest. In your reply, arrange the labels in the requested order.
Return: B, A, C

* * *

quantity.measured: logP

A = Cc1cnc(C)c(Cl)n1
B = COC(=O)c1cncc(C)n1
C = CC(=O)Nc1cncc(C)n1
Enquiry: Please put the entries in order of rising logP. As an answer, provide the labels arranged in the order called for.
Return: B, C, A

P = CCCc1nccnc1C
Q = COc1cncc(C(N)=O)n1
Enquiry: Which entry shows the lesser value of logP here, P or Q ? Output the label that corresponds to your choice.
Return: Q
(Q: 0.13, P: 1.57)
